# target: DPPIV (Mus musculus, UniProt P28843)
# Construct: The plasma was transferred to a 96-well assay plate for the DPPIV assay; from tissue; host or cells: pooled heparinized whole blood of ICR mice; plasma isolated after incubation
# Sequence (P28843 37-760 limits assumed): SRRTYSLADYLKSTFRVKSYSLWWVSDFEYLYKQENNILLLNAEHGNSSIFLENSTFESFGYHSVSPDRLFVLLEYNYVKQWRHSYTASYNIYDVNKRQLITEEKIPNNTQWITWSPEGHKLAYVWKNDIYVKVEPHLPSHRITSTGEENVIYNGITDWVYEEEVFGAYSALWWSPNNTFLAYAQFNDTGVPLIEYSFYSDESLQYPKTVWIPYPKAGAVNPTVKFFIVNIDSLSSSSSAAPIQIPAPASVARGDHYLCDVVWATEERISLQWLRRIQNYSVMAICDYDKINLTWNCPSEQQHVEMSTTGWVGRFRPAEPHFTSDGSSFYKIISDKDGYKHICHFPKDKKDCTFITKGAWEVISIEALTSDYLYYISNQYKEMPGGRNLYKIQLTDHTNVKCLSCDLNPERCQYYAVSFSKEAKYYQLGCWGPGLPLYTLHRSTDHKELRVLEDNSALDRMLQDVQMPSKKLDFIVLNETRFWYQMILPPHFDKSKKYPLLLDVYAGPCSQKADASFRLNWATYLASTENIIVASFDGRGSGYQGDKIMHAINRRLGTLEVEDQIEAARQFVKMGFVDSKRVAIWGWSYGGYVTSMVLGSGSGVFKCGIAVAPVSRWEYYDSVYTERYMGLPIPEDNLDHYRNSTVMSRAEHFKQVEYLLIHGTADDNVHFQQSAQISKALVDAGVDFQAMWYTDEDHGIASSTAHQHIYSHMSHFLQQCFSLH
# test.method.notes: Plasma DPPIV activity assay with mouse blood
# Type: biochemical
# run.conditions: peptide 0.82 mM in mouse blood, 2 h at 37° C.; relative to saline control set to 100%
Where no end group is shown, it is not given here.
Kindly apply the following: MET if % DPPIV Activity (Saline) is less than 60%, NOT MET in every other case.

1) 46 (RVPSLL-NH2) [compound 46] :: NOT MET
2) 8 (RVPA; IMMUNOLOGICAL PEPTIDE) [compound 8] :: NOT MET
3) 9 (RIPA; IMMUNOLOGICAL PEPTIDE) [compound 9] :: MET
4) 74 (CPVIRH-NH2) [compound 74] :: MET
5) 4 (SRIVP; IMMUNOLOGICAL PEPTIDE) [compound 4] :: NOT MET
6) 6 (KIVPA; IMMUNOLOGICAL PEPTIDE) [compound 6] :: NOT MET
7) 83 (Arg-Ile-Pro-NH2) [compound 83] :: MET
8) 5 (RIVPA; IMMUNOLOGICAL PEPTIDE) [compound 5] :: NOT MET
9) 75 (RIEPA; IMMUNOLOGICAL PEPTIDE) [compound 75] :: NOT MET
10) 18 (RIVPGGA-NH2) [compound 18] :: NOT MET
11) 61 (RIVPAC-NH2) [compound 61] :: MET
